- Tested on: barnyardgrass (Echinochloa crus-galli)
- protocol.text: Test A preemergence, barnyardgrass
- Type: in vivo
- conditions.used: 125 g ai/ha, 0 to 100 scale (0 no effect, 100 complete control)
Output yes for Plant response rating, Barnyardgrass not less than 40; output no otherwise.

Consider the following illustrative entries.
O=C1NCC(c2ccccc2Cn2ccc(C(F)(F)F)n2)C1C(=O)Nc1ccc(F)c(F)c1F (stereo not drawn): no
CN1CC(c2cccc(Oc3ncc(F)cc3F)c2)C(C(=O)Nc2ccccc2F)C1=O (single isomer, unassigned): yes
O=C1NCC(c2cccc(Cn3cccn3)c2)C1C(=O)Nc1ccccc1Cl (stereo not drawn): no
O=C1NCC(c2cccc(OCc3ccco3)c2)C1C(=O)Nc1ccccc1C(F)(F)F (stereo not drawn): no
O=C1NCC(c2cccc(OC(F)(F)C(F)OC(F)(F)F)c2)C1C(=O)Nc1ccccc1F (stereo not drawn): yes
O=C1NCC(c2cccc(Oc3ncc(F)cn3)c2)C1C(=O)Nc1cccc(F)c1F (single isomer, unassigned): yes
CN1CC(c2cccc(OC(F)(F)C(F)OC(F)(F)F)c2)C(C(=O)Nc2cccc(F)c2F)C1=O (stereo not drawn): yes
CC1(COc2cccc(C3CNC(=O)C3C(=O)Nc3ccccc3F)c2)COC1 (stereo not drawn): no
O=C1NCC(c2cccc(Oc3ncc(F)cc3F)c2)C1C(=O)Nc1cccc(F)c1F (single isomer, unassigned): yes
O=C1NCC(c2cccc(Oc3ccc(C(F)(F)F)cn3)c2)C1C(=O)Nc1cccc(F)c1F (single isomer, unassigned): yes

# input Record CC1(COc2cccc(C3CNC(=O)C3C(=O)Nc3ccccc3Cl)c2)COC1 (stereo not drawn) ; criterion: Plant response rating, Barnyardgrass no lower than 40. Met?
# output no

# input Record O=C1NCC(c2cccc(Oc3ccc(C(F)(F)F)cn3)c2)C1C(=O)Nc1ccccc1F (single isomer, unassigned) ; criterion: Plant response rating, Barnyardgrass no lower than 40. Met?
# output yes

# input Record O=C1NCC(c2cccc(Oc3ccc(F)cn3)c2)C1C(=O)Nc1ccccc1F (single isomer, unassigned) ; criterion: Plant response rating, Barnyardgrass no lower than 40. Met?
# output yes

# input Record O=C1NCC(c2cccc(Cn3ccc(C(F)(F)F)n3)c2)C1C(=O)Nc1cccc(F)c1F (stereo not drawn) ; criterion: Plant response rating, Barnyardgrass no lower than 40. Met?
# output no

These data points were gathered from patent US10405547B2.
